test system: canarygrass (Phalaris minor); experiment: Test B postemergence plant response; type: in vivo; conditions: 8 g ai/ha, postemergence; 0-100 scale
# maps each entry to its Canarygrass plant response rating
# respond with the number and nothing more

Below, 3 molecules whose answers are already recorded.
1. Cc1nn(C)c(=O)c(-n2nc(-c3ccc(Br)cc3)cc2C)c1O; 65
2. Cc1cc(-c2ccc(Cl)cc2)nn1-c1c(OC(=O)c2ccccc2)cnn(C)c1=O; 0
3. COCc1cc(-c2ccc(Br)cc2)nn1-c1c(O)cnn(C)c1=O; 0

Data request, read-out Canarygrass plant response rating, for CCc1cc(-c2ccc(C(F)(F)F)cc2)nn1-c1c(O)cnn(CC)c1=O
50

Data request, read-out Canarygrass plant response rating, for CCc1c(C)c(-c2ccc(Cl)cc2)nn1-c1c(O)cnn(C)c1=O
10

Data request, read-out Canarygrass plant response rating, for CCc1cc(-c2ccc(F)cc2)nn1-c1c(O)cnn(C)c1=O
0
